System: L1210 leukemia ip in BDF1 mice, survival T/C
experiment_notes: NCI In Vivo Anticancer Drug Screen. Data for tumor model L1210 Leukemia (intraperitoneal) in B6D2F1 (BDF1) mice
applied_conditions: endpoint: mean survival time; dose: 100.0 mg/kg/injection; schedule: Q01DX001 (ip); vehicle: carboxymethylcellulose (CMC); higher = longer survival
Toxic doses and inconclusive results are not listed.
value_type: T/C

(Q) Param item = C[Si](C)(CCl)O[Si](C)(C)CCl ; retrieve measured T/C.
(A) 97 % of control

(Q) Param item = COc1ccc(-c2cc(Cl)c([N+](=O)[O-])cc2[N+](=O)[O-])cc1 ; retrieve measured T/C.
(A) 107 % of control

(Q) Param item = CSc1ccc(NC(=O)C(F)(F)F)cc1 ; retrieve measured T/C.
(A) 92 % of control

(Q) Param item = CCOC(=O)C(C)(N)CCOCc1ccccc1 (stereo unspecified) ; retrieve measured T/C.
(A) 102 % of control

(Q) Param item = C=CC(C)C1C(C)C(Cl)CC(Cl)C1OC(=O)c1ccccc1 (stereo unspecified) ; retrieve measured T/C.
(A) 112 % of control

(Q) Param item = CCCCCCCC/C=N/Nc1nnc(N/N=C/CCCCCCCC)c2ccccc12 ; retrieve measured T/C.
(A) 114 % of control

====

Tested on: L1210 leukemia ip in BDF1 mice, survival T/C
experiment_notes: NCI In Vivo Anticancer Drug Screen. Data for tumor model L1210 Leukemia (intraperitoneal) in B6D2F1 (BDF1) mice
applied_conditions: endpoint: mean survival time; dose: 100.0 mg/kg/injection; schedule: Q01DX009 (ip); vehicle: Klucel (hydroxypropylcellulose) (HPC); higher = longer survival
Toxic doses and inconclusive results are not listed.
value_type: T/C

(Q) Param item = CCc1ccccc1NC(=O)Nc1cc(C)on1 ; retrieve measured T/C.
(A) 103 % of control

(Q) Param item = COc1cc([N+](=O)[O-])ccc1NC(=O)Nc1c(C)n(C)n(-c2ccccc2)c1=O ; retrieve measured T/C.
(A) 97 % of control

(Q) Param item = N#CSC/C=C/Cl ; retrieve measured T/C.
(A) 107 % of control

(Q) Param item = CC(C)(C)N(Cc1ccccc1)C(=O)Nc1ccccc1 ; retrieve measured T/C.
(A) 97 % of control

(Q) Param item = COc1ccccc1NC(=S)N1CCC(CCCC2CCN(C(=S)Nc3ccccc3OC)CC2)CC1 ; retrieve measured T/C.
(A) 92 % of control

(Q) Param item = Cc1ccc(-c2cc(-c3ccccc3)no2)cc1 ; retrieve measured T/C.
(A) 97 % of control

(Q) Param item = Cc1ccc(Cl)cc1NC(=O)C(Cl)Cl ; retrieve measured T/C.
(A) 92 % of control

(Q) Param item = COC(=O)c1cc(Cl)ccc1OCC(=O)Nc1cccc([N+](=O)[O-])c1 ; retrieve measured T/C.
(A) 96 % of control

(Q) Param item = COc1ccc(/C=N/NC(=O)c2ccc(Cl)c(Cl)c2)cc1 ; retrieve measured T/C.
(A) 91 % of control

(Q) Param item = O=C(Nc1cccc(F)c1)Nc1ccc([N+](=O)[O-])cc1Cl ; retrieve measured T/C.
(A) 101 % of control

(Q) Param item = OC(Cc1ccccc1)(c1ccccc1)c1cccc2ccccc12 (configuration not stated) ; retrieve measured T/C.
(A) 90 % of control

(Q) Param item = CSc1ssc(=Nc2ccc(C)cc2)c1-c1ccccc1 ; retrieve measured T/C.
(A) 95 % of control

====

Provide the reported T/C of each item.
Test system: L1210 leukemia ip in BDF1 mice, survival T/C
experiment_notes: NCI In Vivo Anticancer Drug Screen. Data for tumor model L1210 Leukemia (intraperitoneal) in B6D2F1 (BDF1) mice
applied_conditions: endpoint: mean survival time; dose: 100.0 mg/kg/injection; schedule: Q01DX001 (ip); vehicle: carboxymethylcellulose (CMC); higher = longer survival
Toxic doses and inconclusive results are not listed.

(Q) # query: T/C | item O=C(CC(C(=O)Nc1ccccc1)C(O)(c1ccccc1)c1ccccc1)Nc1ccccc1 (configuration not stated) | system: L1210 leukemia ip in BDF1 mice, survival T/C
(A) 95 % of control

(Q) # query: T/C | item Fc1cc(N(CCCl)CCCl)ccc1CN1CCCN(Cc2ccc(N(CCCl)CCCl)cc2F)C1c1ccc(N(CCCl)CCCl)cc1F | system: L1210 leukemia ip in BDF1 mice, survival T/C
(A) 96 % of control

(Q) # query: T/C | item COC1Nc2cc3ccccc3cc2-c2ccccc21 (configuration not stated) | system: L1210 leukemia ip in BDF1 mice, survival T/C
(A) 97 % of control

(Q) # query: T/C | item CC1OC(OC2C(O)C(O)C(O)C(O)C2O)C(N)CC1N=C(N)C(=O)O (configuration not stated) | system: L1210 leukemia ip in BDF1 mice, survival T/C
(A) 90 % of control

(Q) # query: T/C | item Cc1ccc(C)c([N+](=O)[O-])c1C(=O)O | system: L1210 leukemia ip in BDF1 mice, survival T/C
(A) 104 % of control

(Q) # query: T/C | item Cc1cc(Cl)sc1Cl | system: L1210 leukemia ip in BDF1 mice, survival T/C
(A) 98 % of control

(Q) # query: T/C | item C/C=C\CCCCCCC | system: L1210 leukemia ip in BDF1 mice, survival T/C
(A) 90 % of control

====

Tested on: L1210 leukemia ip in BDF1 mice, survival T/C
experiment_notes: NCI In Vivo Anticancer Drug Screen. Data for tumor model L1210 Leukemia (intraperitoneal) in B6D2F1 (BDF1) mice
applied_conditions: endpoint: mean survival time; dose: 200.0 mg/kg/injection; schedule: Q04DX003 (ip); vehicle: alcohol; higher = longer survival
Toxic doses and inconclusive results are not listed.
value_type: T/C

(Q) Param item = COc1cc(C=NC(C)(C)CO)cc(OC)c1 ; retrieve measured T/C.
(A) 97 % of control

(Q) Param item = CC1(C)OC2C(C=O)OC(n3cnc4c(N)ncnc43)C2O1 (centres undefined) ; retrieve measured T/C.
(A) 102 % of control

(Q) Param item = O=C1NC2(C(=O)O1)C1CC3CC(C1)CC2C3 (centres undefined) ; retrieve measured T/C.
(A) 90 % of control

(Q) Param item = O=C(/C=C/c1ccc2c(c1)OCO2)c1ccc([N+](=O)[O-])cc1 ; retrieve measured T/C.
(A) 90 % of control

====

System: L1210 leukemia ip in BDF1 mice, survival T/C
experiment_notes: NCI In Vivo Anticancer Drug Screen. Data for tumor model L1210 Leukemia (intraperitoneal) in B6D2F1 (BDF1) mice
applied_conditions: endpoint: mean survival time; dose: 25.0 mg/kg/injection; schedule: Q01DX009 (ip); vehicle: saline with Tween-80; higher = longer survival
Toxic doses and inconclusive results are not listed.
value_type: T/C

(Q) Param item = C=CCn1c2ccccc2c2c(C)c3cnccc3c(C)c21 ; retrieve measured T/C.
(A) 97 % of control

(Q) Param item = O=P(CCl)(CCl)CCl ; retrieve measured T/C.
(A) 100 % of control

(Q) Param item = COC(=O)N/N=C/C=C/c1ccccc1 ; retrieve measured T/C.
(A) 101 % of control

(Q) Param item = O=c1oc(-c2ccc(Cl)cc2)nc2cc(Cl)ccc12 ; retrieve measured T/C.
(A) 93 % of control

(Q) Param item = [O-]/[N+](=N/O)c1ccc(Cl)cc1 ; retrieve measured T/C.
(A) 100 % of control

====

System: L1210 leukemia ip in BDF1 mice, survival T/C
experiment_notes: NCI In Vivo Anticancer Drug Screen. Data for tumor model L1210 Leukemia (intraperitoneal) in B6D2F1 (BDF1) mice
applied_conditions: endpoint: mean survival time; dose: 400.0 mg/kg/injection; schedule: Q04DX002 (ip); vehicle: saline with Tween-80; higher = longer survival
Inconclusive results and toxic doses are left out.
value_type: T/C

(Q) Param item = O=C(O)c1c(Br)c(Br)c(Br)c(Br)c1C(=O)Nc1cccc2ccccc12 ; retrieve measured T/C.
(A) 94 % of control

(Q) Param item = Cc1ccc(SP(=O)(Sc2ccc(C)cc2)Sc2ccc(C)cc2)cc1 ; retrieve measured T/C.
(A) 97 % of control

(Q) Param item = COc1ccc(NC(=O)Nc2cccc(Cl)c2C)c(OC)c1 ; retrieve measured T/C.
(A) 90 % of control

(Q) Param item = COc1cccc(C=NC2CC(C)CCC2C)c1OC (stereo unspecified) ; retrieve measured T/C.
(A) 90 % of control

(Q) Param item = CCOC(=O)c1ccc(Nc2nnc(-c3ccc(OC)cc3OC)s2)cc1 ; retrieve measured T/C.
(A) 101 % of control

(Q) Param item = Cl[Si](c1ccccc1)(c1ccccc1)c1ccc([Si](Cl)(c2ccccc2)c2ccccc2)cc1 ; retrieve measured T/C.
(A) 96 % of control

(Q) Param item = O=C1CC(c2ccccc2)(c2ccccc2)c2ccccc21 ; retrieve measured T/C.
(A) 96 % of control

(Q) Param item = CCNC(=S)NNC(=O)c1ccc(N=NN(C)C)cc1 ; retrieve measured T/C.
(A) 100 % of control

(Q) Param item = COc1ccc(C)cc1NC(=S)NC(=O)c1cccc([N+](=O)[O-])c1 ; retrieve measured T/C.
(A) 90 % of control

(Q) Param item = CCOc1ccccc1NC(=S)NC(=O)CCc1ccccc1 ; retrieve measured T/C.
(A) 91 % of control

(Q) Param item = C[Si](C)(C)C(c1ccccc1)(c1ccccc1)c1ccccc1 ; retrieve measured T/C.
(A) 90 % of control
